Experiment: Selectivity index, ratio of GI50 for human THP1 cells to MIC90 for dormant Mycobacterium tuberculosis H37Ra ATCC 25177
Format: toxicity
Settings: THP-1 cells, read-out: Selectivity Index
OBSERVED_PROPERTY: selectivity ratio

The reported value for `Cc1cc2oc(-c3cc4ccccc4s3)cc(=O)c2cc1Cl` in terms of selectivity ratio is > 30

----------
Consider the following molecules; for each one, report its GI90.
Tested on: HeLa
Assay: Cytotoxicity against human HeLa cells assessed as growth inhibition after 72 hrs by MTT assay
Assay type: cell-based
Conditions: hela, 72 h
Numeric only. Scale: µg/mL

Noted for `O=C(CC(=O)c1cc(Cl)ccc1O)c1cc2ccccc2s1` : its GI90 reads 8.24

Query `CC(=O)O[C@H]1C(=O)[C@@]2(C)[C@H]([C@H](OC(=O)c3ccccc3)[C@]3(O)C[C@H](OC(=O)[C@H](O)[C@@H](NC(=O)c4ccccc4)c4ccccc4)C(C)=C1C3(C)C)[C@]1(OC(C)=O)CO[C@@H]1C[C@@H]2O` yields GI90 of 0.075

Sample `O=C(CC(=O)c1cc(Br)ccc1O)c1cc2ccccc2s1` ; GI90 observed: 20.28

Short answer for `Cc1ccc2oc(-c3cc4ccccc4s3)cc(=O)c2c1` : GI90 was 27.8

src = ChEMBL document CHEMBL4431374
